The reported numbers originate from ChEMBL document CHEMBL1800007.

# Tested on: Human immunodeficiency virus 1
# experiment: Antiviral activity against HIV1 RF infected in human CEM-SS cells assessed as protection against virus-induced cytopathic effect
# Assay type: functional, organism-based
# condition.notes: cem-ss
measurement.label: EC50

[[record]]
compound = "Cc1cc(O)c(=O)c(O)c2c1C[C@@H](C(C)(O)CNCc1ccccc1F)CC2 (mixture of isomers)"
recorded_value = "Not Active"

[[record]]
compound = "CC(C)c1ccc(O)c(=O)c(O)c1"
recorded_value = "Not Active"

[[record]]
compound = "C=C(C)[C@H]1CCc2c(c(C)cc(O)c(=O)c2O)C1"
recorded_value = "Not Active"

[[record]]
compound = "CC(=O)Oc1cc(C)c2c(c(OC(C)=O)c1=O)CC[C@H](C(C)(O)CO)C2 (mixture of isomers)"
recorded_value = "Not Active"

